# System: UACC-257 melanoma
# ASSAY TEXT: NCI tumour cell line growth inhibition, 48 h
Parameter TGI: see the listing below.
Return type: number; implicit unit µM.

# MOLECULAR STRING, MEASUREMENT TARGET, TGI [µM]
rows = [
    ("CC(C)c1ccc(COCc2cc(CN3CCCC3)c(O)c3ncccc23)cc1", "UACC-257 melanoma", 3.93),
]

Task: Return reported TGI; argument: `CN(C)CCN(C)CCC(=O)/C=C/c1ccccc1`
Output: 51.4

Task: Return reported TGI; argument: `COc1ccc(OC)c(N(CCN2C(=O)c3ccccc3C2=O)C(=O)CCl)c1`
Output: 88

Task: Return reported TGI; argument: `c1ccc(-c2ccc(-c3ccc(C4=NCCN4)cc3)o2)cc1`
Output: 4.89

Task: Return reported TGI; argument: `CC(=O)Oc1ccc2c3c1[C@H]1O[C@H]1c1cccc(c1-3)[C@@H]1O[C@H]21`
Output: 32.9

---

# Tested on: MDA-MB-231 breast
# ASSAY TEXT: NCI tumour cell line growth inhibition, 48 h
MEASURED ATTRIBUTE: TGI (µM)
Return type: number; implicit unit µM.

# MOLECULAR STRING, TGI (µM)
records = [
    ("Cc1cc2nc(CS)[nH]c2cc1C", 50),
]

Moving on to another molecule below.
Task: Return reported TGI; argument: `COc1ccc(OC)c(N(CCN2C(=O)c3ccccc3C2=O)C(=O)CCl)c1`
Output: 7.51

---

Parameter TGI: see the listing below.
# Test system: ACHN renal
# ASSAY TEXT: NCI tumour cell line growth inhibition, 48 h

Example entries and their recorded answers appear below.
# MOLECULE, TGI
measured = [
    ("Nc1c(N2CCCCC2)c(=O)nc2[nH]/c(=C\\c3ccco3)c(=O)n12", "> 100 µM"),
    ("c1ccc(-c2ccc(-c3ccc(C4=NCCN4)cc3)o2)cc1", "7.97 µM"),
    ("O=C(Nc1nc(=S)[nH][nH]1)C(=O)C1C(=O)Nc2ccccc2S1=O (stereo unspecified)", "> 100 µM"),
    ("OC[C@H]1C[C@@H]2Cc3ccccc3N2N1", "> 100 µM"),
    ("CC(=O)/C(N=Nc1ccc(-n2c(C)nc3ccccc3c2=O)cc1)=C(/C)O", "> 100 µM"),
]

Moving on to another molecule below.
Task: Return reported TGI; argument: CC1=NOC(C)(O)/C1=N/O (stereo unspecified)
Output: > 100 µM

---

# System: UACC-62 melanoma
# ASSAY TEXT: NCI tumour cell line growth inhibition, 48 h; in the data active means GI50 below about 0.43 µM; inactive means the rest
Result category, one only: y = active, n = inactive

# COMPOUND, LABEL
records = [
    ("Cc1ccc(C2CC(c3cccc(Nc4ccncc4)c3)=NN2c2cc(Cl)cc(Cl)c2)cc1 (stereo not drawn)", "n"),
]

From here, focus on the item given below.
Task: For `COc1ccc2cnc(N)c(C#Cc3cc(C(=O)Nc4ccc(CN5CCN(C)CC5)c(C(F)(F)F)c4)cnc3C)c2c1` , what call appears in the results of this test?
Output: y

---

# System: SK-MEL-2 melanoma
# ASSAY TEXT: NCI tumour cell line growth inhibition, 48 h
Parameter TGI: see the listing below.
Return type: number; implicit unit µM.

Example entries and their recorded answers appear below.
# MOLECULAR STRING, UNIT SYMBOL, TGI
measured = [
    ("c1ccc(-c2n(Cc3ccc4ccccc4n3)cc[n+]2Cc2ccc3ccccc3n2)cc1", "µM", 5.96),
    ("Oc1c(CNCCCN2CCCC2)cc(Cl)c2cccnc12", "µM", 26.2),
    ("COc1ccc(OC)c(N(CCN2C(=O)c3ccccc3C2=O)C(=O)CCl)c1", "µM", 35.1),
    ("O=C(c1ccccc1)N(C(=S)NCCc1ccc(Cl)cc1)c1ccc(Cl)cc1", "µM", 36.4),
]

Moving on to another molecule below.
Task: Return reported TGI; argument: `COc1ccc2nc3n[nH]c(N)c3nc2c1`
Output: 17.5
